From: patent US7511144B2

Molecular target: Human MMP13 (Homo sapiens)
Construct: purchased Chemicon CC068
Experiment: MMP13 inhibition experiment
Format: biochemical
Details: concentration required for 50% inhibition of enzyme activity; read-out: IC50 value MMP-13
outcome.measure: IC50 (µM)

{"columns": ["compound", "IC50 / µM"],
 "data": [
  ["Cc1cc(COc2ccc(S(=O)(=O)CC(CC3CCC4(CC3)OCCO4)N(O)C=O)cc2)c2ccccc2n1 (centres unmarked)", 5]
]}

(I) COCc1cc(COc2ccc(S(=O)(=O)CC(C=C3CCC(=O)CC3)N(O)C=O)cc2)cc(C)n1 (centres unmarked)
(II) CCC(CC)C(=O)N1CCC(=CC(CS(=O)(=O)c2ccc(OCc3cc(C)nc4ccccc34)cc2)N(O)C=O)CC1 (centres unmarked)
(III) Cc1cc(Cl)cc(COc2ccc(S(=O)(=O)CC(CC3CCC(=NO)CC3)N(O)C=O)cc2)c1 (centres unmarked)
Ask: Highest IC50 first, then in falling order down to the smallest. Use the labels to give the requested order.
Reply: I, II, III
(I: 60 µM, II: 20 µM, III: 6 µM)

* * *

Molecular target: Human MMP9 (Homo sapiens)
Construct: purchased Calbiochem 444231
Test: MMP9 inhibition experiment
Assay type: biochemical
Conditions: read-out: IC50 value MMP-9
outcome.measure: IC50 (µM)

{"columns": ["molecule", "subject.of.test", "outcome.measure", "endpoint.value"],
 "data": [
  ["Cc1cc(Cl)cc(COc2ccc(S(=O)(=O)CC(CC3CCC(=NO)CC3)N(O)C=O)cc2)c1 (stereo not drawn)", "Human MMP9 (Homo sapiens)", "IC50", 23],
  ["Cc1cc(Cl)cc(COc2ccc(S(=O)(=O)CC(CC3CCC(=O)CC3)N(O)C=O)cc2)c1 (stereo not drawn)", "Human MMP9 (Homo sapiens)", "IC50", 20],
  ["Cc1ccc(CCCC(CS(=O)(=O)c2ccc(OCc3cc(C)nc4ccccc34)cc2)N(O)C=O)cc1 (stereo not drawn)", "Human MMP9 (Homo sapiens)", "IC50", 22],
  ["Cc1cc(Cl)cc(COc2ccc(S(=O)(=O)CC(C=C3CCC(=NO)CC3)N(O)C=O)cc2)c1 (stereo not drawn)", "Human MMP9 (Homo sapiens)", "IC50", 40],
  ["COc1ccc(CCC(CS(=O)(=O)c2ccc(OCc3cc(C)nc4ccccc34)cc2)N(O)C=O)cc1 (stereo not drawn)", "Human MMP9 (Homo sapiens)", "IC50", 37]
]}

(I) Cc1ccc(C(CS(=O)(=O)c2ccc(OCc3cc(C)nc4ccccc34)cc2)N(O)C=O)cn1 (stereo not drawn)
(II) C=C1CCC(C(CS(=O)(=O)c2ccc(OCc3cc(C)cc(C)c3)cc2)N(O)C=O)CC1 (stereo not drawn)
(III) O=CN(O)C(C=C1CCC(=NO)CC1)CS(=O)(=O)c1ccc(OCc2ccc3ccccc3n2)cc1 (stereo not drawn)
Ask: Ascending by IC50, please: list the molecules accordingly. Use the labels to give the requested order.
Reply: II, I, III

(a) Cc1cc(COc2ccc(S(=O)(=O)CC(C3CCCN(C(=O)c4ccccc4)C3)N(O)C=O)cc2)c2ccccc2n1 (stereo not drawn)
(b) Cc1ccc2nc(C)cc(COc3ccc(S(=O)(=O)CC(C=C4CCC(=NO)CC4)N(O)C=O)cc3)c2c1 (stereo not drawn)
Ask: Form field 'greater IC50' accepts a or b ; which applies? Indicate which entry you chose by stating its label.
Reply: a
(a: 50 µM, b: 35 µM)

* * *

Molecular target: Human MMP13 (Homo sapiens, UniProt P45452)
Construct: purchased Chemicon CC068
Test: MMP13 inhibition experiment
Assay type: biochemical
Conditions: concentration required for 50% inhibition of enzyme activity; read-out: IC50 value MMP-13
pIC50: −log10 of the molar value.
outcome.measure: pIC50

{"columns": ["molecule", "pIC50"],
 "data": [
  ["Cc1ccc(CCCC(CS(=O)(=O)c2ccc(OCc3cc(C)nc4ccccc34)cc2)N(O)C=O)cc1 (stereo not shown) [Example I-37]", 5.22],
  ["Cc1cc(COc2ccc(S(=O)(=O)CC(N(O)C=O)C3(C)CCC4(CC3)OCCO4)cc2)c2ccccc2n1 (stereo not shown) [Example I-47]", 4.74],
  ["Cc1cc(COc2ccc(S(=O)(=O)CC(C=C3CCN(C(=O)OC(C)(C)C)CC3)N(O)C=O)cc2)c2ccccc2n1 (stereo not shown) [Example I-18]", 5.46],
  ["Cc1cc(COc2ccc(S(=O)(=O)CC(C3CCCN(C(=O)OC(C)(C)C)C3)N(O)C=O)cc2)c2ccccc2n1 (stereo not shown) [Example I-72]", 5.85],
  ["Cc1cc(COc2ccc(S(=O)(=O)CC(C3CCCN(C(=O)c4ccccc4)C3)N(O)C=O)cc2)c2ccccc2n1 (stereo not shown) [Example I-131]", 5.49]
]}

(a) Cc1cc(COc2ccc(S(=O)(=O)CC(c3ccccc3C)N(O)C=O)cc2)c2ccccc2n1 (stereo not shown) [Example I-23]
(b) Cc1cc(COc2ccc(S(=O)(=O)CC(C=C3CCN(C(=O)C(C)(C)C)CC3)N(O)C=O)cc2)c2ccccc2n1 (stereo not shown) [Example I-25]
Ask: Form field 'greater pIC50' accepts a or b ; which applies? Indicate which entry you chose by stating its label.
Reply: b

* * *

Molecular target: Human MMP9 (Homo sapiens, UniProt P14780)
Construct: purchased Calbiochem 444231
Sequence (P14780 107-707 limits assumed): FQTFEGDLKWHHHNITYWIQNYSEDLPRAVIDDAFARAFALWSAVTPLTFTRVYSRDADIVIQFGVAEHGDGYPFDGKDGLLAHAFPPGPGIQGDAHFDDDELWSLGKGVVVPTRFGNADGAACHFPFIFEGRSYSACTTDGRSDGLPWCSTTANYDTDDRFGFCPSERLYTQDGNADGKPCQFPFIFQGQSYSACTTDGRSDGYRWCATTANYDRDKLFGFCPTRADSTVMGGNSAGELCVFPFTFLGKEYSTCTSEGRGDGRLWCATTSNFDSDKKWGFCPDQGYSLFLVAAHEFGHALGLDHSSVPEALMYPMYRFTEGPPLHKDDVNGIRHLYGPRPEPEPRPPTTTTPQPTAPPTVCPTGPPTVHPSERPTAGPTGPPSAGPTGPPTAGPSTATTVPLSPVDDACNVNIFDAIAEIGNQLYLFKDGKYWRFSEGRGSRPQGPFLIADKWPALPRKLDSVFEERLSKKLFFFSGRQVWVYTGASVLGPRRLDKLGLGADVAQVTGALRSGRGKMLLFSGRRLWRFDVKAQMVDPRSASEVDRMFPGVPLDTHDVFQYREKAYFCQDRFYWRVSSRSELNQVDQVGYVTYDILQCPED
Experiment: MMP9 inhibition experiment
Assay type: biochemical
Conditions: read-out: IC50 value MMP-9
outcome.measure: IC50 (µM)

(P) COc1ccc(C(=O)N2CCN(CC(CS(=O)(=O)c3ccc(OCc4cc(C)nc5ccccc45)cc3)N(O)C=O)CC2)cc1 (stereo not drawn)
(Q) Cc1cc(COc2ccc(S(=O)(=O)CC([C@H]3CSC(=O)N3C)N(O)C=O)cc2)c2ccccc2n1 (stereo partly drawn)
Ask: I'm curious whether P or Q has the smaller IC50 number. Which is it? Indicate which entry you chose by stating its label.
Reply: P

(A) CON=C1CCC(C(CS(=O)(=O)c2ccc(OCc3cc(C)nc4ccccc34)cc2)N(O)C=O)CC1 (stereo not drawn)
(B) Cc1cc(COc2ccc(S(=O)(=O)CC(C=C3CCN(C(=O)OC(C)(C)C)CC3C)N(O)C=O)cc2)c2ccccc2n1 (stereo not drawn)
Ask: Form field 'greater IC50' accepts A or B ; which applies? Indicate which entry you chose by stating its label.
Reply: B
(B: 62 µM, A: 28 µM)

(A) COc1cc(C)cc(COc2ccc(S(=O)(=O)CC(C3CCC4(CC3)OCCO4)N(O)C=O)cc2)c1 (stereo not drawn)
(B) Cc1cc(C)cc(COc2ccc(S(=O)(=O)CC(C=C3CCC(=O)CC3)N(O)C=O)cc2)c1 (stereo not drawn)
Ask: I'm curious whether A or B has the smaller IC50 number. Which is it? Indicate which entry you chose by stating its label.
Reply: A

(a) COc1cc(C)cc(COc2ccc(S(=O)(=O)CC(CC3CCC4(CC3)OCCO4)N(O)C=O)cc2)c1 (stereo not drawn)
(b) O=CN(O)C(C=C1CCC2(CC1)OCCO2)CS(=O)(=O)c1ccc(OCc2ccc3ccccc3n2)cc1 (stereo not drawn)
(c) Cc1ccc2nc(C)cc(COc3ccc(S(=O)(=O)CC(c4ccccc4C)N(O)C=O)cc3)c2c1 (stereo not drawn)
Ask: Highest IC50 first, then in falling order down to the smallest. Use the labels to give the requested order.
Reply: c, b, a
(c: 80 µM, b: 53 µM, a: 30 µM)

* * *

Biological target: Human MMP1 (Homo sapiens, UniProt P03956)
Construct: purchased Calbiochem 444208
Sequence (P03956 100-469): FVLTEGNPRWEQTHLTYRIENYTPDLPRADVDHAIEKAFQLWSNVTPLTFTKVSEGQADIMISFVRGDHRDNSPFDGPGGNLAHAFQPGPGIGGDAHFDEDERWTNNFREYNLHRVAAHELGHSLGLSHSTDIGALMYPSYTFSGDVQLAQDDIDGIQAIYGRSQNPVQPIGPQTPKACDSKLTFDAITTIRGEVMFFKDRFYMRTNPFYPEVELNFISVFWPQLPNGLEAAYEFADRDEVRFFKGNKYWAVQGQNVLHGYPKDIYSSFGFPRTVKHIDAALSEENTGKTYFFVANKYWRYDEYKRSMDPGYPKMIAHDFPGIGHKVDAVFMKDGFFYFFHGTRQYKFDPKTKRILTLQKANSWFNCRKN
Assay: MMP1 inhibition experiment
Assay type: biochemical
Settings: read-out: IC50 value MMP-1
pIC50: −log10 of the molar value.
outcome.measure: pIC50

{"columns": ["molecule", "pIC50"],
 "data": [
  ["COc1ccc(CN2C(=O)SCC2C(CS(=O)(=O)c2ccc(OCc3cc(C)nc4ccccc34)cc2)N(O)C=O)cc1 (stereo not shown)", 4.27]
]}

(a) Cc1cc(COc2ccc(S(=O)(=O)CC([C@H]3CSC(=O)N3C)N(O)C=O)cc2)c2ccccc2n1 (stereo partly shown)
(b) CC[C@H](C)[C@H](NC(=O)[C@H](CC(C)C)[C@H](C(C)C)N(O)C=O)C(=O)Nc1ccccn1 [compound 3, reference compound]
Ask: I'm curious whether a or b has the smaller pIC50 number. Which is it? Indicate which entry you chose by stating its label.
Reply: a
